- Species: Oryctolagus cuniculus
- run_description: In vitro inhibition of potassium-induced contractions in rabbit aorta strips.
- Assay type: functional, organism-based
pIC50: −log10 of the molar value.
measured_property: pIC50

[1] CSC1=NC2/C(=C(/O)OCCCCCSc3ccccc32)C(C)=N1 (stereo in doubt; 15b)
[2] CSC1=NC2/C(=C(/O)OCCCCCSc3ccccc32)C(C)=N1 (stereo in doubt; 15b-A)
# input Between 1 and 2 , whose recorded pIC50 is greater? Give the chosen item's label as your response.
# output 2

// data source = ChEMBL document CHEMBL1128711
